Reported EC (1.5-fold) values follow for various molecules
# Tested on: SMN protein in SMA patient fibroblast cells (GM03813)
# test.protocol: SMN protein assay (HTRF) in cultured cells
# Format: cell-based
# recorded.conditions: Homo sapiens, concentration producing 1.5 times SMN protein vs vehicle, SMA Type 1 patient fibroblasts, 48 hours, read-out: EC1.5x SMN protein
Could you give me the number in µM? Just the number is fine.

- molecule: "Cc1nc2ccc(-c3cc(=O)n4cc(N5C[C@@H](C)N[C@@H](C)C5)cc(C)c4n3)nn2n1"
  test.readout: "EC (1.5-fold)"
  recorded.value: 0.225
- molecule: "Cc1nc2ncc(-c3cc(=O)n4cc(N5CCCN(C)CC5)ccc4n3)cn2n1"
  test.readout: "EC (1.5-fold)"
  recorded.value: 0.324
- molecule: "Cc1nc2ccc(-c3cc(=O)n4cc(N5CCN(C)CC5)cc(C)c4n3)nn2n1"
  test.readout: "EC (1.5-fold)"
  recorded.value: 0.0347
- molecule: "Cc1nc2ncc(-c3cc(=O)n4cc(N5CCN(C6CNC6)CC5)ccc4n3)cn2n1"
  test.readout: "EC (1.5-fold)"
  recorded.value: 30
- molecule: "Cc1nc2ccc(-c3cc(=O)n4cc(N5CC6CN(C)CC6C5)ccc4n3)nn2n1 (centres unmarked)"
  test.readout: "EC (1.5-fold)"
  recorded.value: 0.0151

Q. Using the record for `Cc1nc2ccc(-c3cc(=O)n4cc(N5CCNC6(CC6)C5)ccc4n3)nn2n1` , report its EC (1.5-fold).
A. 0.265

Q. Using the record for `Cc1nc2ccc(-c3cc(=O)n4cc(N5C[C@H]6CN(C)C[C@H]6C5)cc(C)c4n3)nn2n1` , report its EC (1.5-fold).
A. 0.0077

Q. Using the record for `Cc1nc2ncc(-c3cc(=O)n4cc(N5CCN[C@@H](C)C5)ccc4n3)cn2n1` , report its EC (1.5-fold).
A. 0.281

Q. Using the record for `Cc1nc2ccc(-c3cc(=O)n4cc(N5CCCN(C)CC5)ccc4n3)nn2n1` , report its EC (1.5-fold).
A. 0.12

Q. Using the record for `Cc1nc2ccc(-c3cc(=O)n4cc(N5C[C@H](C)N[C@@H](C)C5)cc(C)c4n3)nn2n1` , report its EC (1.5-fold).
A. 0.0337

Q. Using the record for `Cc1nc2ccc(-c3cc(=O)n4cc(N5CC6(CCNCC6)C5)ccc4n3)nn2n1` , report its EC (1.5-fold).
A. 0.0199
